# Test system: ZIKV rhesus macaque strain MR 766
# Experiment: Plaque reduction inhibition assay, ZIKV MR 766 in Vero E6 cells
# Format: cell-based
# Test Conditions: Zika virus, Vero C1008, in Macaca mulatta, read-out: IC50 MR 766
Metric Name: IC50 (µM)
Provide the reading as a plain figure in µM.

Lookup: Query: IC50; subject: Cc1cc2c(C(C)C)c(O)c(O)c(C=O)c2c(O)c1-c1c(C)cc2c(C(C)C)c(O)c(O)c(C=O)c2c1O
Found: 3.75

###

# Experiment: in vitro
# Test Conditions: African green monkey
Metric Name: CC50 at 3 days (µM)
Provide the reading as a plain figure in µM.

Lookup: Query: CC50 at 3 days; subject: CC(C)C[C@H](NC(=O)[C@H](Cc1ccccc1)NC(=O)c1cnccn1)B(O)O [Bortezomib, bortezomib, reference compound]
Found: 17.8

Lookup: Check C[C@H]1[C@H]2CC[C@H]3[C@@H]4CC=C5C[C@@H](N(C)C)CC[C@]5(C)[C@H]4CC[C@]23CN1C too.
Found: 315

Lookup: Check Cc1cc2c(C(C)C)c(O)c(O)c(C=O)c2c(O)c1-c1c(C)cc2c(C(C)C)c(O)c(O)c(C=O)c2c1O too.
Found: 14.8

Lookup: Check COc1cc(/C=C/C(=O)CC(=O)/C=C/c2ccc(O)c(OC)c2)ccc1O too.
Found: 53.1

meta.source: paper PMC6893700
